Measurement Description: Pharmacokinetic mouse studies
Assay type: in vivo, C57BL/6 mice
Test Parameters: female, mouse, 200 mg/kg; C57BL/6 mice, single IP dose, serum

{"Sample Smiles": "C[C@]12CCC(=O)N(Cc3ccc(Br)cc3)C1=CC[C@@H]1[C@@H]2C(=O)C[C@]2(C)C(=O)CC[C@@H]12", "Unit": "h", "half-life": 1.29}

====

System Under Test: SULT2B1b (Homo sapiens (Human))
Sequence (O00204 whole entry): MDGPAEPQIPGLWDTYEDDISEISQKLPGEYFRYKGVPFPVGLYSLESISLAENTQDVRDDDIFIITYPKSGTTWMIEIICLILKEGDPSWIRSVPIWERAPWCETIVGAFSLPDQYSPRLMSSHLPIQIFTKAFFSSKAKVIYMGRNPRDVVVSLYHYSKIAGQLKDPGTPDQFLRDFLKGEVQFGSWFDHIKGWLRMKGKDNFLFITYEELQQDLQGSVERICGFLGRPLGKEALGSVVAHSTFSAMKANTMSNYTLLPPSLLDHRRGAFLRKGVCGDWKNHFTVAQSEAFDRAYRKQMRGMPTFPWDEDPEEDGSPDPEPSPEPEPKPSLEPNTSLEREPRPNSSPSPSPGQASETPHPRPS
Measurement Description: LC-MS/MS based in vitro assay (DHEA-sulfate formation)
Format: biochemical
Test Parameters: 100 μM compound, 2 hours; mean±s.e.m., n=3
# Lookup of reported inhibition at 100 µM keyed by entry

{"Compound": "C[C@]12CCC(=O)N(Cc3ccc(Cl)cc3)C1=CC[C@@H]1[C@@H]2C(=O)C[C@@]2(C)[C@H]1CCC21OCCO1", "inhibition at 100 µM, %": 45}
{"Compound": "C[C@]12CCC(=O)N(Cc3ccc(Cl)cc3)C1=CC[C@@H]1[C@@H]2C(=O)C[C@]2(C)C(=O)CC[C@@H]12", "inhibition at 100 µM, %": 67.8}
{"Compound": "C[C@]12CCC(=O)N(CC3CC3)C1=CC[C@@H]1[C@@H]2C(=O)C[C@]2(C)C(=O)CC[C@@H]12", "inhibition at 100 µM, %": 27}
{"Compound": "C[C@]12CCC(=O)N(Cc3ccc(Br)nc3)C1=CC[C@@H]1[C@@H]2C(=O)C[C@]2(C)C(=O)CC[C@@H]12", "inhibition at 100 µM, %": 53}
{"Compound": "C[C@]12CCC(=O)N(Cc3cccc(Cl)c3)C1=CCC1[C@@H]2C(=O)C[C@]2(C)C(=O)CC[C@@H]12 (some centres unmarked)", "inhibition at 100 µM, %": 69.8}
{"Compound": "C[C@]12CCC(=O)N(Cc3ccccc3Cl)C1=CC[C@@H]1[C@@H]2C(=O)C[C@]2(C)C(=O)CC[C@@H]12", "inhibition at 100 µM, %": 46}
{"Compound": "C[C@]12CCC(=O)N(CC3CCCCC3)C1=CC[C@@H]1[C@@H]2C(=O)C[C@]2(C)C(=O)CC[C@@H]12", "inhibition at 100 µM, %": 48}
{"Compound": "C[C@]12CCC(=O)N(Cc3ccc4ccccc4c3)C1=CC[C@@H]1[C@@H]2C(=O)C[C@]2(C)C(=O)CC[C@@H]12", "inhibition at 100 µM, %": 52}
